Cited source for all entries: patent US20220016215A1

# GLP1R EC50 nM (B) listing for each entry below
Target: human GLP-1R (human, UniProt P43220 24-463)
Assay: cell-based or functional assay
Non-standard residues stand in square brackets, D forms with d. No end group written: not given here.

Sample answers from the record:
[
  {
    "BINDER": "FXEGTFISDYXIAXDKIHQQDFVNWLLAQKGKKNDWKHNITQ (Aib at 2; X* = 1-amino,1-cyclopentane carboxylic acid at 11; Nle at 14; C-terminal -OH) [Compound No. 9]",
    "GLP1R EC50 nM (B)": "> 1000 nM"
  },
  {
    "BINDER": "Y[dA]EGTFISDYSIAMDKIHQQDFVNWLLAQKGKKNDWKHNIIQ-NH2 [Compound No. 14]",
    "GLP1R EC50 nM (B)": "933 nM"
  }
]

Data request: GLP1R EC50 nM (B) lookup needed for YXEGTFISDYSIXXDKIHQQDFVNWLLAQKGKKNDWKHNITQ (3,5-diBr-Tyr at 1; Aib at 2; Aib at 13; Nle at 14; C-terminal -OH) [Compound No. 8] , thanks.
Data returned: 118 nM
